Source: patent US20210070748A1

# Subject of test: JAK3 (Homo sapiens)
# Sequence (P52333 1-1124): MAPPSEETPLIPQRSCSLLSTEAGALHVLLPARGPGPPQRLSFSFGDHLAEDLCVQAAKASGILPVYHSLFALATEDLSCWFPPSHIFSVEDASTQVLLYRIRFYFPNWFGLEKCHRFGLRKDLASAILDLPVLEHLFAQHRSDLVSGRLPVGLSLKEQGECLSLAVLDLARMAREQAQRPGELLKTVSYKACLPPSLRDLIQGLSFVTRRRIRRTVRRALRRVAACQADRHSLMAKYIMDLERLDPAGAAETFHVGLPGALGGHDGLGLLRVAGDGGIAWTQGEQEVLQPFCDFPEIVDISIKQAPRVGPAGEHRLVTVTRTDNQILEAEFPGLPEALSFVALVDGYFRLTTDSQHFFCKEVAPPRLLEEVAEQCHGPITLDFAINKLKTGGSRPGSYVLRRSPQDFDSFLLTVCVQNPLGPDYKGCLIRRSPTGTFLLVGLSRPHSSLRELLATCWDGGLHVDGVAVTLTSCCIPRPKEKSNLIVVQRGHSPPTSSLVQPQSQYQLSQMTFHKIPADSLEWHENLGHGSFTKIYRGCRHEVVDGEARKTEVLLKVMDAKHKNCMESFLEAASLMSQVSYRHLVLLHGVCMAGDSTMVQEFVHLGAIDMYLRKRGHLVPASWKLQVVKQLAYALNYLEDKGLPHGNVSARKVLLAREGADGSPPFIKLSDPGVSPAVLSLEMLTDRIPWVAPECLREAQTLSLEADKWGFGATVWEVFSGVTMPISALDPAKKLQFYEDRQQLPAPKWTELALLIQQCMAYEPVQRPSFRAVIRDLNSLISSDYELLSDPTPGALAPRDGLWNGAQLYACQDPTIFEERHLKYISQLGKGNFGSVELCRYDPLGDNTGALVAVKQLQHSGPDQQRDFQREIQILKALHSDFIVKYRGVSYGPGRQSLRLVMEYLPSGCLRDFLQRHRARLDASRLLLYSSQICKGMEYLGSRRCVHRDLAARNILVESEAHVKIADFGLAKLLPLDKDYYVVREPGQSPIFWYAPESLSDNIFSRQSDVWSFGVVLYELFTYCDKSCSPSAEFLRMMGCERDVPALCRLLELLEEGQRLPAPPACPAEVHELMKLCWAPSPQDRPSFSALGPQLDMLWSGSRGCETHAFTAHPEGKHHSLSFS
# Assay summary: Inhibition of a panel of kinases, in vitro HotSpot kinase assay: JAK3
# Assay type: biochemical
# Condition set: Table 10, Formula A-I; 1 μM ATP; read-out: JAK3 (IC50)
Where a name gives a salt, the structure may show the parent alone.
Value kind: IC50

Take a look at these entries with their results.
Compound	Subject of test	IC50
CCn1cc2cc(C(=O)N[C@@H]3CCCN(c4cnc(C(N)=O)c(Nc5cc(C)ns5)n4)C3)ccc2n1 [Example A-38]	JAK3 (Homo sapiens)	1 to 10 µM
Cc1cc(Nc2nc(N3CCC[C@H](NC(=O)c4ccc(N(C)C)cc4)[C@@H]3CO)cnc2C(N)=O)sn1 (stereo in doubt) [Example A-67]	JAK3 (Homo sapiens)	0.1 to 1 µM
Cc1cc(Nc2nc(N3CCC[C@@H](NC(=O)c4cccc(N(C)C)c4)C3)cnc2C(N)=O)sn1 [Example A-27, hydrochloride]	JAK3 (Homo sapiens)	1 to 10 µM
Cc1cc(Nc2nc(N3CCC[C@@H](NC(=O)c4ccccc4)C3)cnc2C(N)=O)sn1 [Example A-19]	JAK3 (Homo sapiens)	0.1 to 1 µM
Cc1cc(Nc2nc(N3CCC[C@H](NC(=O)c4ccc(N(C)C)cc4)[C@@H]3C)cnc2C(N)=O)sn1 [Example A-54]	JAK3 (Homo sapiens)	1 to 10 µM
Cc1cc(Nc2nc(N3CCC[C@@H](NC(=O)c4ccc(C(C)(C)C)cc4)C3)cnc2C(N)=O)sn1 [Example A-37]	JAK3 (Homo sapiens)	> 10 µM
Cc1cccc(C(=O)N[C@@H]2CCCN(c3cnc(C(N)=O)c(Nc4cc(C)ns4)n3)C2)c1 [Example A-33]	JAK3 (Homo sapiens)	1 to 10 µM

May I ask what IC50 has been recorded for Cc1cc(Nc2cc(N3CCC[C@@H](NC(=O)c4ccc(C(C)C)cc4)C3)cnc2C(N)=O)sn1 [Example A-63] ?
> 10 µM
